molecular target: PARP (Mus musculus); construct: PARP Activity in Cultured Macrophages, Using a Whole-Cell Based Assay; assay: PARP activity in cultured macrophages, whole-cell based assay (3H-NAD+ incorporation after hydrogen peroxide); conditions: murine RAW macrophages; compound 1 hour prior to hydrogen peroxide (0.5 mM) for 25 minutes; PARP activity by 3H-NAD+
Sequence (P11103 whole entry): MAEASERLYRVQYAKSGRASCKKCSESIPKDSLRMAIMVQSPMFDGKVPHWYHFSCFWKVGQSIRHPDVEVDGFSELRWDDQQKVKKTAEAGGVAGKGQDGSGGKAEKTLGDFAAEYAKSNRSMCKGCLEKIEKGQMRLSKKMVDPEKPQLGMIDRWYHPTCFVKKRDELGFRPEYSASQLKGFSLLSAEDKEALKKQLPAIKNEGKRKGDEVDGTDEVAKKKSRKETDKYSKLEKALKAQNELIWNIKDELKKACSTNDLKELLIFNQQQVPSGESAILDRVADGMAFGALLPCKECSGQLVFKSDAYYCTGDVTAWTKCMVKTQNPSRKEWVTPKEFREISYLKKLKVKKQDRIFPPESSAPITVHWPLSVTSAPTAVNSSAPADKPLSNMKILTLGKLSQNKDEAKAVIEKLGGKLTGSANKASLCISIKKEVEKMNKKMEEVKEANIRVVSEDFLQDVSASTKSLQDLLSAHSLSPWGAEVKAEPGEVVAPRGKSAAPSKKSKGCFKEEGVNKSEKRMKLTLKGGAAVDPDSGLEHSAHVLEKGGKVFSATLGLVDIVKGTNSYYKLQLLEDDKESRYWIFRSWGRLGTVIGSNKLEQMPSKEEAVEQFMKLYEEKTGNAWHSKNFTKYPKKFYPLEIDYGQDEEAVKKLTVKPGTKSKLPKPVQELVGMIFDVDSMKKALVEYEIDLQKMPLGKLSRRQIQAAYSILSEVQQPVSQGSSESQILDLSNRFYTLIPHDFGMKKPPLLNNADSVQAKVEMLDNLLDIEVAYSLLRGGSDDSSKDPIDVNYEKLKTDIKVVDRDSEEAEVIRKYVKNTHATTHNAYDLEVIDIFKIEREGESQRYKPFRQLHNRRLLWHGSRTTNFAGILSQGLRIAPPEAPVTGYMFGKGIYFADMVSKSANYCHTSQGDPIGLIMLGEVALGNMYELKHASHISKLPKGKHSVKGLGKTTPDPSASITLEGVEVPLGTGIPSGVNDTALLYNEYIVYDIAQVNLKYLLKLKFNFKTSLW
pEC50: −log10 of the molar value. Counter-ions that a name gives are not always drawn.
READOUT: pEC50

{"columns": ["COMPOUND", "READOUT", "VALUE MODIFIER", "RECORDED RESULT"],
 "data": [
  ["CCCCN1CCN(Cc2cccc3c2Cc2c-3[nH]c(=O)c3ccccc23)CC1", "pEC50", "=", 7.60],
  ["CCOC(CN1CCN(Cc2ccc3c(c2)Cc2c-3[nH]c(=O)c3ccccc23)CC1)OCC", "pEC50", "=", 7.12],
  ["O=c1[nH]c2c(c3ccccc13)Cc1cc(CN3CCN(C4CCCCC4)CC3)ccc1-2 [Dihydrochloride salt of IIIb-14]", "pEC50", "=", 7.70],
  ["CCC(C)n1c2cc(CN3CCC4(CC3)OCCO4)ccc2c2[nH]c(=O)c3ccccc3c21 (centres unmarked)", "pEC50", "=", 7.10],
  ["O=c1[nH]c2c(c3ccc(F)cc13)Cc1c(CNC3(CO)CCCC3)cc(F)cc1-2", "pEC50", "=", 8.52],
  ["O=c1[nH]c2c(c3ccc(F)cc13)Cc1c(CNC3CCOCC3)cccc1-2", "pEC50", "=", 8.30],
  ["O=c1[nH]c2c(c3ccccc13)Cc1c(CNCCCO)cccc1-2", "pEC50", "=", 7.82],
  ["C=CCN1CCN(Cc2cccc3c2Cc2c-3[nH]c(=O)c3ccccc23)CC1", "pEC50", "=", 7.70],
  ["O=c1[nH]c2c(c3ccccc13)Cc1cc(CN3CCCCCC3)ccc1-2", "pEC50", "<", 7.00],
  ["O=C(C1CC1)N1CCN(Cc2ccc3c(c2)Cc2c-3[nH]c(=O)c3ccccc23)CC1", "pEC50", "=", 7.12],
  ["O=c1[nH]c2c(c3ccccc13)Cc1cc(CN3CCN(c4ncccn4)CC3)ccc1-2", "pEC50", "=", 7.12],
  ["O=c1[nH]c2c(c3ccccc13)Cc1c(CN3CCC4(CC3)OCCO4)cccc1-2", "pEC50", "=", 7.52],
  ["CCC(=O)N1CCCN(Cc2ccc3c(c2)Cc2c-3[nH]c(=O)c3ccccc23)CC1 [IIb-118, hydrochloride]", "pEC50", "=", 7.22],
  ["O=c1[nH]c2c(c3ccccc13)Cc1c(CN3CC[C@H](F)C3)cccc1-2", "pEC50", "=", 7.92],
  ["CC(C)N1CCN(Cc2cccc3c2Cc2c-3[nH]c(=O)c3ccccc23)CC1", "pEC50", "=", 7.35],
  ["O=c1[nH]c2c(c3cccc(Cl)c13)Cc1c(CNC3CCCC3)cccc1-2", "pEC50", "<", 7.00],
  ["CC(C)(C)OC(=O)N1CCC(NCc2ccc3c(c2)Cc2c-3[nH]c(=O)c3ccccc23)CC1", "pEC50", "<", 7.22],
  ["C[C@@H]1CN(Cc2ccc3c(c2)Cc2c-3[nH]c(=O)c3ccccc23)C[C@H](C)N1", "pEC50", "<", 7.22],
  ["CC(C)(C)OC(=O)N1CCN(Cc2ccc3c(c2)Cc2c-3[nH]c(=O)c3ccccc23)CC1", "pEC50", "<", 7.00],
  ["O=c1[nH]c2c(c3ccccc13)Cc1c(CNC3(CO)CCCC3)cccc1-2", "pEC50", ">", 8.00]
]}
